Below, each entry is listed alongside its reported protein stability index.
Experiment: protein stability index of a GFP-peptide fusion (yeast GPS) (PSI 1-4); higher = more stable; sorted into four equal gates, so the index is relative within each strain
Details: pdr5∆
Enter the number alone.

{"columns": ["SEQUENCE_CONTENT", "TEST_VALUE"],
 "data": [
  ["EQKGQMAKKEGTPKTDS [MED4]", 3]
]}

Noted for LDYQETYVEELFPIVKK [YJL039C/NUP192] : its protein stability index reads 3.07

So, RVGVVSILEAGDSDILT [RPL30] ? Its protein stability index was 2.97

So for LISRLCPNSTGAELRSV [RPT1] , the logged protein stability index turned out to be 1.77

Lookup result for AKRVENFNSSAPIADDN [DSN1] ; measured protein stability index: 3.32
